Items are presented alongside their recorded log10 of IC50.
- Measured target: Macrophage metalloelastase (Homo sapiens, UniProt P39900)
- Sequence (P39900 whole entry): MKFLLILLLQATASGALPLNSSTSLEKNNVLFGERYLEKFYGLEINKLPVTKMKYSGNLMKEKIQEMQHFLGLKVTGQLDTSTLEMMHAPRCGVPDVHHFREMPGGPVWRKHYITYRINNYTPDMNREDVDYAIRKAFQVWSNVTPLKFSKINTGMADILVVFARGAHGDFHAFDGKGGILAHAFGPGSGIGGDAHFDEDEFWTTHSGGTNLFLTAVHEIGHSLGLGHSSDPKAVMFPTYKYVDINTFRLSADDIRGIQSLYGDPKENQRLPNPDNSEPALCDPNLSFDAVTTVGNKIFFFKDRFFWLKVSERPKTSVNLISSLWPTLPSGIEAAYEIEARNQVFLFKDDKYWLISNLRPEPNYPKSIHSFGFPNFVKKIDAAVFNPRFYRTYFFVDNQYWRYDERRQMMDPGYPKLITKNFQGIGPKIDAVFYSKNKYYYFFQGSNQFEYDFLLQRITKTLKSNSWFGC
- Experiment summary: Inhibition of matrix metalloprotease-12 (MMP-12)
Property measured: log10 of IC50 (log10 of the value in nM)

• O=C(NO)C1c2ccc(O)cc2CCN1S(=O)(=O)c1cc(Cl)ccc1Cl (centres undefined) = 2.23
• COc1ccc(S(=O)(=O)N2CCc3cc(O)c(OC)cc3C2C(=O)NO)cc1 (centres undefined) = 1.30
• Cc1ccc(S(=O)(=O)N2CCc3cc(O)ccc3C2C(=O)NO)cc1 (centres undefined) = 1.46
• COc1cc2c(cc1O)CCN(S(=O)(=O)c1ccccc1)C2C(=O)NO (centres undefined) = 1.81
• COc1ccc(S(=O)(=O)N2CCc3cc(OCc4ccccc4)ccc3C2C(=O)NO)cc1 (centres undefined) = 1.76
• O=C(NO)C1c2ccc(OCc3ccccc3)cc2CCN1S(=O)(=O)c1cc(Cl)ccc1Cl (centres undefined) = 2.97
• O=C(NO)C1c2ccc(OCc3ccccc3)cc2CCN1S(=O)(=O)c1ccccc1 (centres undefined) = 1.76
• Cc1ccc(S(=O)(=O)N2CCc3cc(OCc4ccccc4)ccc3C2C(=O)NO)cc1 (centres undefined) = 1.86
• O=C(NO)C1c2ccc(O)cc2CCN1S(=O)(=O)c1ccc([N+](=O)[O-])cc1 (centres undefined) = 1.77

###

- Measured target: 72 kDa type IV collagenase (Homo sapiens, UniProt P08253)
- Sequence (P08253 whole entry): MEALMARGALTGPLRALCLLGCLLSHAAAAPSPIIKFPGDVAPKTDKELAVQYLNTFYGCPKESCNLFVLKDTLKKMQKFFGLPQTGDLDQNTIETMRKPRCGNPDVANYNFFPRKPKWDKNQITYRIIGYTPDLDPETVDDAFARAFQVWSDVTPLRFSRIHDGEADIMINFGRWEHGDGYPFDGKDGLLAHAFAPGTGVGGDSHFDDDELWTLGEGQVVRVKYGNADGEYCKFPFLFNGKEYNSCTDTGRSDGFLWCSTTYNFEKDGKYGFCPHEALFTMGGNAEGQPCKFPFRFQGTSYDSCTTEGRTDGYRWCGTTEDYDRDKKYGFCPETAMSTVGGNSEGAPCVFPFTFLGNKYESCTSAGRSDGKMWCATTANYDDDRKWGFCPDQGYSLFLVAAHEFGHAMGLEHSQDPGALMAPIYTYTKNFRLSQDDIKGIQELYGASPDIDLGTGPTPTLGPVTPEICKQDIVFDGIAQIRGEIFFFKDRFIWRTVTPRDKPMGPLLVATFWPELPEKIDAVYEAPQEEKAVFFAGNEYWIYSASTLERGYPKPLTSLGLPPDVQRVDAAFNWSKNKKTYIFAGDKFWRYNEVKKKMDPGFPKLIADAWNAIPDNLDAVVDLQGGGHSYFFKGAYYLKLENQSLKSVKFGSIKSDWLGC
Friendly reminder: IC50 below 80 nM is 1, at or above is 0.

• COc1cc2c(cc1O)CCN(S(=O)(=O)c1ccccc1)C2C(=O)NO (stereo not given) = 1
• O=C(NO)C1c2ccc(O)cc2CCN1S(=O)(=O)c1ccc([N+](=O)[O-])cc1 (stereo not given) = 1
• O=C(NO)C1c2ccc(O)cc2CCN1S(=O)(=O)c1cc(Cl)ccc1Cl (stereo not given) = 0
• Cc1ccc(S(=O)(=O)N2CCc3cc(OCc4ccccc4)ccc3C2C(=O)NO)cc1 (stereo not given) = 1
• Nc1ccc(S(=O)(=O)N2CCc3cc(O)ccc3C2C(=O)NO)cc1 (stereo not given) = 0
• O=C(NO)C1c2ccc(OCc3ccccc3)cc2CCN1S(=O)(=O)c1ccccc1 (stereo not given) = 1
• Cc1ccc(S(=O)(=O)N2CCc3cc(O)ccc3C2C(=O)NO)cc1 (stereo not given) = 1
• COc1ccc(S(=O)(=O)N2CCc3cc(OCc4ccccc4)ccc3C2C(=O)NO)cc1 (stereo not given) = 1
• COc1ccc(S(=O)(=O)N2CCc3cc(O)c(OC)cc3C2C(=O)NO)cc1 (stereo not given) = 1
• COc1ccc(S(=O)(=O)N2CCc3cc(O)ccc3C2C(=O)NO)cc1 (stereo not given) = 0

###

- Measured target: Matrix metalloproteinase-16 (Homo sapiens, UniProt P51512)
- Sequence (P51512 whole entry): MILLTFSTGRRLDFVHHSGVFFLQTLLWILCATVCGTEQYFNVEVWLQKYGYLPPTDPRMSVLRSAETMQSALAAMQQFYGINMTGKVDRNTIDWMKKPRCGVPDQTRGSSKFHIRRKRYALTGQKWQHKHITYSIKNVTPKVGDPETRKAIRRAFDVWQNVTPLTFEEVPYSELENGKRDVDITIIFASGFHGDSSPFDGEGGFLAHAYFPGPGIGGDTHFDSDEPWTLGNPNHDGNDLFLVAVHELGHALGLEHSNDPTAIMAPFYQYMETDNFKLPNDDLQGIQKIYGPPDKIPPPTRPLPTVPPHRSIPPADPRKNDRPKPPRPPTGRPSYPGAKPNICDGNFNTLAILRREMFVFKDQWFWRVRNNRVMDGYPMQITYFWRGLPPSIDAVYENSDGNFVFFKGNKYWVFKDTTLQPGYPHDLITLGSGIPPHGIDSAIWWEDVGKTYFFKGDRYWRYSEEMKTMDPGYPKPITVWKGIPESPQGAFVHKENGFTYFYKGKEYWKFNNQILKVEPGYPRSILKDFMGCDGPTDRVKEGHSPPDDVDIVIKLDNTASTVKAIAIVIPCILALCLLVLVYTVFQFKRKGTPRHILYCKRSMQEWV
IC50 strictly under 2000 nM means true (1); at 2000 nM or over means false (0).

* Cc1ccc(S(=O)(=O)N2CCc3cc(O)ccc3C2C(=O)NO)cc1 (stereo not given) | true (1)
* Nc1ccc(S(=O)(=O)N2CCc3cc(O)ccc3C2C(=O)NO)cc1 (stereo not given) | true (1)
* O=C(NO)C1c2ccc(O)cc2CCN1S(=O)(=O)c1cc(Cl)ccc1Cl (stereo not given) | true (1)
* Cc1ccc(S(=O)(=O)N2CCc3cc(OCc4ccccc4)ccc3C2C(=O)NO)cc1 (stereo not given) | true (1)
* O=C(NO)C1c2ccc(OCc3ccccc3)cc2CCN1S(=O)(=O)c1cc(Cl)ccc1Cl (stereo not given) | false (0)

###

- Measured target: Matrilysin (Homo sapiens)
- Experiment summary: Inhibition of matrix metalloprotease-7 (MMP-7)
Binary label based on IC50 with cut-off 3 µM: below gives YES, not below gives NO.

- COc1ccc(S(=O)(=O)N2CCc3cc(O)c(OC)cc3C2C(=O)NO)cc1 (stereo not given): NO
- COc1ccc(S(=O)(=O)N2CCc3cc(OCc4ccccc4)ccc3C2C(=O)NO)cc1 (stereo not given): YES
- COc1cc2c(cc1O)CCN(S(=O)(=O)c1ccccc1)C2C(=O)NO (stereo not given): NO
- O=C(NO)C1c2ccc(O)cc2CCN1S(=O)(=O)c1cc(Cl)ccc1Cl (stereo not given): NO
- O=C(NO)C1c2ccc(OCc3ccccc3)cc2CCN1S(=O)(=O)c1ccccc1 (stereo not given): NO

###

- Measured target: Interstitial collagenase (Homo sapiens, UniProt P03956)
- Sequence (P03956 whole entry): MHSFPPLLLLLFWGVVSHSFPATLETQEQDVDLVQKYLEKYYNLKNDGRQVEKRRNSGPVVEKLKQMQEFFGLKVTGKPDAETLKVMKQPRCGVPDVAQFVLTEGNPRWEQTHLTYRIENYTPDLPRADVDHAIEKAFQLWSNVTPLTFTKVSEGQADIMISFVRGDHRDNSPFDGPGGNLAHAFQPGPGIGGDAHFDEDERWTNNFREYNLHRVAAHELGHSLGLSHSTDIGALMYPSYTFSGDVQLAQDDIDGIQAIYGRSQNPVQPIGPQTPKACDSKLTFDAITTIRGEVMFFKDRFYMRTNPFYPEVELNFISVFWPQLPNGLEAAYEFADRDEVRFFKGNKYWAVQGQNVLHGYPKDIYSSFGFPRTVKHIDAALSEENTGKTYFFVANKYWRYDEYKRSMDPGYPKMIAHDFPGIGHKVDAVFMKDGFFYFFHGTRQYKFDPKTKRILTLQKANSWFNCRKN
- Experiment summary: Inhibition of matrix metalloprotease-1 (MMP-1)
pIC50: −log10 of the molar value.
Parameter threshold = 6. Response is true when pIC50 meets or exceeds it, else false.

• COc1ccc(S(=O)(=O)N2CCc3cc(O)ccc3C2C(=O)NO)cc1 (stereo not given) = false
• Cc1ccc(S(=O)(=O)N2CCc3cc(O)ccc3C2C(=O)NO)cc1 (stereo not given) = true
• O=C(NO)C1c2ccc(O)cc2CCN1S(=O)(=O)c1ccccc1 (stereo not given) = false
• COc1ccc(S(=O)(=O)N2CCc3cc(O)c(OC)cc3C2C(=O)NO)cc1 (stereo not given) = true
• Nc1ccc(S(=O)(=O)N2CCc3cc(O)ccc3C2C(=O)NO)cc1 (stereo not given) = false
• Cc1ccc(S(=O)(=O)N2CCc3cc(OCc4ccccc4)ccc3C2C(=O)NO)cc1 (stereo not given) = true
• COc1cc2c(cc1O)CCN(S(=O)(=O)c1ccccc1)C2C(=O)NO (stereo not given) = true
• COc1ccc(S(=O)(=O)N2CCc3cc(OCc4ccccc4)ccc3C2C(=O)NO)cc1 (stereo not given) = true
• O=C(NO)C1c2ccc(OCc3ccccc3)cc2CCN1S(=O)(=O)c1ccccc1 (stereo not given) = true
• O=C(NO)C1c2ccc(O)cc2CCN1S(=O)(=O)c1ccc([N+](=O)[O-])cc1 (stereo not given) = true

###

- Measured target: Matrilysin (Homo sapiens, UniProt P09237)
- Sequence (P09237 whole entry): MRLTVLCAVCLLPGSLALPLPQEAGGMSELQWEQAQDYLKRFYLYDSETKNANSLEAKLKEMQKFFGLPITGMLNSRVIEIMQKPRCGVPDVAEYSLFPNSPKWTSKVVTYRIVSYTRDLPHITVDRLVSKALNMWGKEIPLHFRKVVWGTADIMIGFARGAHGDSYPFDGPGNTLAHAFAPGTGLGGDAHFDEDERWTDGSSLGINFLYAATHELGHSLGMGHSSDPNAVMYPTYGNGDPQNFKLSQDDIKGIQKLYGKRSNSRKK
- Experiment summary: Inhibition of matrix metalloprotease-7 (MMP-7)
Property measured: IC50

• O=C(NO)C1c2ccc(O)cc2CCN1S(=O)(=O)c1ccc([N+](=O)[O-])cc1 (stereo not drawn) = 21.4 µM
• Cc1ccc(S(=O)(=O)N2CCc3cc(OCc4ccccc4)ccc3C2C(=O)NO)cc1 (stereo not drawn) = 12 µM
• Cc1ccc(S(=O)(=O)N2CCc3cc(O)ccc3C2C(=O)NO)cc1 (stereo not drawn) = 10.5 µM

###

A set of compounds tested on Matrix metalloproteinase-9 (Homo sapiens), with measured IC50:
Property measured: IC50

• COc1ccc(S(=O)(=O)N2CCc3cc(OCc4ccccc4)ccc3C2C(=O)NO)cc1 (stereo not given) = 30 nM
• O=C(NO)C1c2ccc(O)cc2CCN1S(=O)(=O)c1cc(Cl)ccc1Cl (stereo not given) = 1880 nM
• O=C(NO)C1c2ccc(O)cc2CCN1S(=O)(=O)c1ccc([N+](=O)[O-])cc1 (stereo not given) = 258 nM
• Cc1ccc(S(=O)(=O)N2CCc3cc(O)ccc3C2C(=O)NO)cc1 (stereo not given) = 40 nM
• COc1ccc(S(=O)(=O)N2CCc3cc(O)c(OC)cc3C2C(=O)NO)cc1 (stereo not given) = 46 nM

###

Measured pIC50 on Matrix metalloproteinase-14 (Homo sapiens, UniProt P50281) follows.
pIC50: −log10 of the molar value.
Property measured: pIC50

• O=C(NO)C1c2ccc(OCc3ccccc3)cc2CCN1S(=O)(=O)c1ccccc1 (centres undefined) = 7.41
• Cc1ccc(S(=O)(=O)N2CCc3cc(OCc4ccccc4)ccc3C2C(=O)NO)cc1 (centres undefined) = 7.21
• O=C(NO)C1c2ccc(O)cc2CCN1S(=O)(=O)c1cc(Cl)ccc1Cl (centres undefined) = 5.34
• COc1ccc(S(=O)(=O)N2CCc3cc(O)c(OC)cc3C2C(=O)NO)cc1 (centres undefined) = 7.17
• Cc1ccc(S(=O)(=O)N2CCc3cc(O)ccc3C2C(=O)NO)cc1 (centres undefined) = 7.28
• O=C(NO)C1c2ccc(O)cc2CCN1S(=O)(=O)c1ccc([N+](=O)[O-])cc1 (centres undefined) = 6.28
• COc1cc2c(cc1O)CCN(S(=O)(=O)c1ccccc1)C2C(=O)NO (centres undefined) = 6.06
• O=C(NO)C1c2ccc(O)cc2CCN1S(=O)(=O)c1ccccc1 (centres undefined) = 5.96
• COc1ccc(S(=O)(=O)N2CCc3cc(OCc4ccccc4)ccc3C2C(=O)NO)cc1 (centres undefined) = 7.47

###

- Measured target: Matrix metalloproteinase-16 (Homo sapiens)
pIC50: −log10 of the molar value.
Attribute: pIC50
Property measured: pIC50

* COc1cc2c(cc1O)CCN(S(=O)(=O)c1ccccc1)C2C(=O)NO (stereo not given) | 7.40
* O=C(NO)C1c2ccc(O)cc2CCN1S(=O)(=O)c1ccc([N+](=O)[O-])cc1 (stereo not given) | 6.75
* COc1ccc(S(=O)(=O)N2CCc3cc(O)c(OC)cc3C2C(=O)NO)cc1 (stereo not given) | 7.80
* COc1ccc(S(=O)(=O)N2CCc3cc(OCc4ccccc4)ccc3C2C(=O)NO)cc1 (stereo not given) | 7.66
* O=C(NO)C1c2ccc(OCc3ccccc3)cc2CCN1S(=O)(=O)c1ccccc1 (stereo not given) | 7.46
